Test system: MS2 coat protein
test-description: apparent KD of MS2 coat protein; designed switch direction (-1 OFF switch, 1 ON switch): -1; higher = weaker reporter binding
measurement-setup: input ligand: FMN 200 uM
parameter-measured: apparent KD of MS2 coat protein (nM)
Give bare numbers, in nM.

Completed entries (count: 3):
>  <monomer-sequence>
UGCCUUUGAGGAUAUACGUAGAAAUAGAUUCAUGUAAAACUACAUGAGGAUCACCCAUGUAGAAGGCAAGGGCU [Mat - Exclusion 2 - JL Mod - D48] (Eterna round: R97, puzzle: Exclusion 2)

>  <parameter-measured>
apparent KD of MS2 coat protein

>  <reported-value>
164

$$$$
>  <monomer-sequence>
UUUAUAUAUGAAGGAUAUACUUAACAUGAGGAUCACCCAUGUGGUGUUGUGAGUGAGUGAGUUUAGUAGAAGGUCAAUUAUUUU [JMF's solution 27] (Eterna round: R96, puzzle: Exclusion NG 2)

>  <parameter-measured>
apparent KD of MS2 coat protein

>  <reported-value>
594

$$$$
>  <monomer-sequence>
UAUUCACAAGCGAGAUCCCACAUGAGGAUCACCCAUGUGCUCGUCUUAUAAGGUACUGUGACGAUAGUCACGGUACC [Mat - Sensor, turn-off var - Eli Mod - D86] (Eterna round: R97, puzzle: Sensor, turn-off variant 1)

>  <parameter-measured>
apparent KD of MS2 coat protein

>  <reported-value>
17.4

$$$$

Prompt: # assay system MS2 coat protein: give apparent KD of MS2 coat protein of CCUCUACAUGAGGAUCACCCAUGUGAGGAUAUCAAAGUCAGAGCGGCUCUCUGACUCAUGAGAAGGUGCAUGAA [EX1 A.13] (Eterna round: R97, puzzle: Exclusion 1)
Completion: 30.6
